These data points were gathered from ChEMBL document CHEMBL1150776.

Form field: IC50 (one value per entry).
# ASSAY TARGET: Glycogen phosphorylase, muscle form (Oryctolagus cuniculus, UniProt P00489)
Reply numerically in µM, unit not repeated.

Q: What IC50 value was documented for this compound, C=C(C)[C@@H]1CC[C@]2(C(=O)O)CC[C@]3(C)[C@H](CC[C@@H]4[C@@]5(C)CC[C@H](O)C(C)(C)[C@@H]5CC[C@]43C)[C@@H]12 [BETULINIC ACID] ?
Result: 43

Now look at this one.
Q: Could you share which IC50 value was measured for CC1(C)[C@@H](O[C@H]2O[C@H](C(=O)O)[C@@H](O)[C@H](O)[C@H]2O[C@@H]2O[C@H](C(=O)O)[C@@H](O)[C@H](O)[C@H]2O)CC[C@]2(C)[C@H]3C(=O)C=C4[C@@H]5C[C@@](C)(C(=O)O)CC[C@]5(C)CC[C@@]4(C)[C@]3(C)CC[C@@H]12 [GLYCYRRHIZIN] ?
Result: 822

---

# ASSAY TARGET: Glycogen phosphorylase, muscle form (Oryctolagus cuniculus, UniProt P00489)
# Sequence (P00489 whole entry): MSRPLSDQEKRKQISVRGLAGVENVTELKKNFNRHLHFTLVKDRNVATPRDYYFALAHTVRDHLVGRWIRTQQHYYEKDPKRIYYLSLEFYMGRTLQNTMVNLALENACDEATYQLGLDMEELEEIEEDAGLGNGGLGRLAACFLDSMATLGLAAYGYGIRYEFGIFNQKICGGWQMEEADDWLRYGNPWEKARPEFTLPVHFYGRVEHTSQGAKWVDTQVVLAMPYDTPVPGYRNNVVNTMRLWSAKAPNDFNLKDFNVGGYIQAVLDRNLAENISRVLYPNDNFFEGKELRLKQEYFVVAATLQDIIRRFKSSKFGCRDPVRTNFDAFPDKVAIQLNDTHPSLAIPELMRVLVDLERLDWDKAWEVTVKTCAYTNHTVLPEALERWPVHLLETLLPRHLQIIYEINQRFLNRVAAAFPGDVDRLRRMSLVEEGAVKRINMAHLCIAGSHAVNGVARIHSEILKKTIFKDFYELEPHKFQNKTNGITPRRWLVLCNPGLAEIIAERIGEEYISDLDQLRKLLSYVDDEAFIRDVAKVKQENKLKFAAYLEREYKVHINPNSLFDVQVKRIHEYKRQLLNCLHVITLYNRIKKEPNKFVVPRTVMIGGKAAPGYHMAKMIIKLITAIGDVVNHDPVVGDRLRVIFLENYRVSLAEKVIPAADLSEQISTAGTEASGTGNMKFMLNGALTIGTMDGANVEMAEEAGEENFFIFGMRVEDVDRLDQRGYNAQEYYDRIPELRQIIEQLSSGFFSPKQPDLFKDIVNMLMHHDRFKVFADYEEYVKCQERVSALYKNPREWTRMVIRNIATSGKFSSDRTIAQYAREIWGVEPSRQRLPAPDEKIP
pIC50: −log10 of the molar value.
Please mark satisfied if the recorded pIC50 is equal to or greater than 4, and not satisfied if it falls below.

Q: Confirm if pIC50 reported for the compound CC1(C)[C@@H](O)CC[C@]2(C)[C@H]3C(=O)C=C4[C@@H]5C[C@@](C)(C(=O)O)CC[C@]5(C)CC[C@@]4(C)[C@]3(C)CC[C@@H]12 [ENOXOLONE] is 4 or above.
Result: satisfied

Q: Determine whether this compound has pIC50 no lower than 4: CC1(C)CC[C@]2(C(=O)O[C@@H]3O[C@H](CO)[C@@H](O)[C@H](O)[C@H]3O)CC[C@]3(C)C(=CC[C@@H]4[C@@]5(C)CC[C@H](O)C(C)(C)[C@@H]5CC[C@]43C)[C@@H]2C1
Result: not satisfied

Q: Exam item: decide whether the reported pIC50 for C=C(C)[C@@H]1CC[C@]2(CO)CC[C@]3(C)[C@H](CC[C@@H]4[C@@]5(C)CC[C@H](O)C(C)(C)[C@@H]5CC[C@]43C)[C@@H]12 [BETULIN] is at least 4.
Result: satisfied

Let's switch to this compound now.
Q: Does the compound C=C(C)[C@@H]1CC[C@]2(C(=O)O)CC[C@]3(C)[C@H](CC[C@@H]4[C@@]5(C)CC[C@H](O)[C@@](C)(CO)[C@@H]5CC[C@]43C)[C@@H]12 have recorded pIC50 that is 4 or more?
Result: satisfied
